Attribution: PubChem BioAssay AID2551

# target_of_assay: Nuclear receptor ROR-gamma (Mus musculus)
# protocol_summary: qHTS for inhibitors of ROR gamma transcriptional activity; also: nearly all actives have a fitted effect of over 60% in size
# details: Drosophila S2 Gal4-RORgamma UAS-luciferase reporter, 20 h; series mostly up to 53.6 µM
Among all 310,000 compounds or so, about 17,000 (5.5%) were called active. About 11% were inconclusive and are not listed. Calls follow the shape of the dose curve; as a rule, active = well fitted inhibition curve with a large enough effect; inconclusive = small, poorly fitted or top-dose-only effect, or effect the other way; inactive = no such curve, though single readings can be large or run the other way. The entries come from a sample that favours actives as a whole.
Outcomes: label 1 for active, label 0 for inactive

compound="COc1ccc(CC(=O)N2N=C(C)CC2(O)C(F)(F)F)cc1 (stereo unspecified)" target_of_assay="Nuclear receptor ROR-gamma (Mus musculus)" category_label="label 1"
compound="O=C(C1CC1)N1N=C(c2ccc(Br)cc2)CC1(O)C(F)(F)F (stereo unspecified)" target_of_assay="Nuclear receptor ROR-gamma (Mus musculus)" category_label="label 0"
compound=CCCCCNC(=O)Cc1ccc(OC)cc1 target_of_assay="Nuclear receptor ROR-gamma (Mus musculus)" category_label="label 0"
compound="CC1=NN(C(=O)CCc2ccccc2O)C(O)(C(F)(F)F)C1 (stereo unspecified)" target_of_assay="Nuclear receptor ROR-gamma (Mus musculus)" category_label="label 1"
compound=O=C(NCc1ccccn1)[C@]1(C(F)(F)F)C[C@H](CCc2ccccc2)CCCO1 target_of_assay="Nuclear receptor ROR-gamma (Mus musculus)" category_label="label 0"
compound="COC(=O)c1cc(C(=O)NC(C)C2CC3CCC2C3)cc([N+](=O)[O-])c1 (stereo unspecified)" target_of_assay="Nuclear receptor ROR-gamma (Mus musculus)" category_label="label 0"
compound="O=C(Cc1ccccc1)N1N=C(c2ccncc2)CC1(O)C(F)(F)F (stereo unspecified)" target_of_assay="Nuclear receptor ROR-gamma (Mus musculus)" category_label="label 1"
compound="CCN(C(=O)CN1C(=O)/C(=C/c2ccc(F)cc2)SC1=S)C1CCS(=O)(=O)C1 (stereo unspecified)" target_of_assay="Nuclear receptor ROR-gamma (Mus musculus)" category_label="label 0"
compound=O=C(O)CCCc1ccccc1 target_of_assay="Nuclear receptor ROR-gamma (Mus musculus)" category_label="label 0"
compound="CC1=NN(C(=O)CCCc2ccccc2)C(O)(C(F)(F)F)C1 (stereo unspecified)" target_of_assay="Nuclear receptor ROR-gamma (Mus musculus)" category_label="label 1"
compound="CCC1(C)Cc2c(sc3[nH]c(=S)n(Cc4ccccc4)c(=O)c23)CO1 (stereo unspecified)" target_of_assay="Nuclear receptor ROR-gamma (Mus musculus)" category_label="label 1"

###

# target_of_assay: Nuclear receptor ROR-gamma (Mus musculus)
# protocol_summary: qHTS for inhibitors of ROR gamma transcriptional activity; also: nearly all actives have a fitted effect of over 60% in size
# details: Drosophila S2 Gal4-RORgamma UAS-luciferase reporter, 20 h; series mostly up to 53.6 µM
Hit rate of the full screen: of about 310,000 compounds, about 17,000 (5.5%) were called active. Roughly 11% stayed inconclusive and do not appear here. The call rests on the fitted dose curve; in most records, active means well fitted inhibition curve with a large enough effect; inconclusive means small, poorly fitted or top-dose-only effect, or effect the other way; inactive means no such curve, though single readings can be large or run the other way. This excerpt belongs to a sample that is enriched for actives.
Possible outcomes: T for active, F for inactive

molecule=S=c1nc(C23CC4CC(CC(C4)C2)C3)nc2sccn12 category_label=T
molecule="COc1cccc(/C=C2\\Sc3ccc(C(=O)NCC4CCCO4)cc3N(C)C2=O)c1 (stereo unspecified)" category_label=F
molecule=COc1ccccc1N1CCN(C(=O)c2cc(=O)c3cc(C)ccc3o2)CC1 category_label=F
molecule="NC(=O)C1CC(=O)N(c2ccc(OCC(=O)NCc3ccccc3)cc2)C1 (stereo unspecified)" category_label=F
molecule=CS(=O)(=O)N1CCN=C1SCc1ccc(F)cc1 category_label=F
molecule=CC(C)(C)c1ccc(SCCc2ccncc2)cc1 category_label=F
molecule="CCOC(=O)c1ccc(N2C(=O)CC(N(C)Cc3ccccc3)C2=O)cc1 (stereo unspecified)" category_label=F
molecule="Cc1nn(C(C)C(=O)NCCC2=CCCCC2)c(=O)c2nn(-c3ccccc3)c(C)c12 (stereo unspecified)" category_label=F
molecule=COc1cc(OC)cc(-c2nc(=S)n3ccsc3n2)c1 category_label=F
molecule="CCCCCCC(=O)N(O)C1CC(=O)N(c2ccccc2)C1=O (stereo unspecified)" category_label=T
molecule=Cc1c(NC(=O)Nc2cccc([N+](=O)[O-])c2)c(=O)n(-c2ccccc2)n1C category_label=F

###

# target_of_assay: Nuclear receptor ROR-gamma (Mus musculus)
# protocol_summary: qHTS for inhibitors of ROR gamma transcriptional activity; also: nearly all actives have a fitted effect of over 60% in size
# details: Drosophila S2 Gal4-RORgamma UAS-luciferase reporter, 20 h; series mostly up to 53.6 µM
# Source text: NIH Molecular Libraries Probe Production Network [MLPCN] NIH Chemical Genomics Center [NCGC] […] Small molecule inhibitors of ROR gamma activity are detected by a decrease in luciferase reporter activity. […]
The whole screen tested about 310,000 compounds, of which about 17,000 (5.5%) were called active. Another 11% or so got no clear call; they are omitted. Calls come from the whole dose curve; as a rule, active = well fitted inhibition curve with a large enough effect; inconclusive = small, poorly fitted or top-dose-only effect, or effect the other way; inactive = no such curve, though single readings can be large or run the other way. This excerpt belongs to a sample that is enriched for actives.
Labels: active, inactive

molecule=COc1ccc(C=Nc2cccc3ncccc23)cc1 target_of_assay="Nuclear receptor ROR-gamma (Mus musculus)" category_label=inactive
molecule="COc1ccc(/C=C2\\SC(=O)N(CCC(=O)NC3CCS(=O)(=O)C3)C2=O)cc1 (stereo unspecified)" target_of_assay="Nuclear receptor ROR-gamma (Mus musculus)" category_label=inactive
molecule=Cc1cc(CN(C)C(=O)c2cc(COc3ccc(C)c(C)c3)on2)n[nH]1 target_of_assay="Nuclear receptor ROR-gamma (Mus musculus)" category_label=inactive
molecule=Cc1ccn2c(c1)nc(=O)c1cc(S(=O)(=O)N3CCC(C)CC3)ccc12 target_of_assay="Nuclear receptor ROR-gamma (Mus musculus)" category_label=inactive
molecule="CC1=C(C(N)=O)C(c2ccc3c(c2)OCO3)n2nc(-c3cccc(C)c3)nc2N1 (stereo unspecified)" target_of_assay="Nuclear receptor ROR-gamma (Mus musculus)" category_label=active
molecule="CC1(c2ccc3ccccc3c2)NC(=O)N(CC(N)=O)C1=O (stereo unspecified)" target_of_assay="Nuclear receptor ROR-gamma (Mus musculus)" category_label=inactive
molecule="CC1=C(C(N)=O)C(c2ccc(F)cc2)n2nc(CCCO)nc2N1 (stereo unspecified)" target_of_assay="Nuclear receptor ROR-gamma (Mus musculus)" category_label=inactive
molecule=CC(C)(C)Nc1c(N)c(=O)oc2ccccc12 target_of_assay="Nuclear receptor ROR-gamma (Mus musculus)" category_label=inactive
molecule="CCN(CC)S(=O)(=O)c1ccc(N2CCOCC2)c(NC(=O)C2CSC3(C)CCC(=O)N23)c1 (stereo unspecified)" target_of_assay="Nuclear receptor ROR-gamma (Mus musculus)" category_label=inactive
molecule=Cc1ccccc1-n1nnc2c(=O)oc3ccccc3c21 target_of_assay="Nuclear receptor ROR-gamma (Mus musculus)" category_label=active
molecule=CCCCC(=O)Nc1cc(C)c2c(=O)oc3ccccc3c2n1 target_of_assay="Nuclear receptor ROR-gamma (Mus musculus)" category_label=inactive

###

# target_of_assay: Nuclear receptor ROR-gamma (Mus musculus)
# protocol_summary: qHTS for inhibitors of ROR gamma transcriptional activity; also: nearly all actives have a fitted effect of over 60% in size
# details: Drosophila S2 Gal4-RORgamma UAS-luciferase reporter, 20 h; series mostly up to 53.6 µM
Out of some 310,000 compounds screened, about 17,000 (5.5%) were called active. Not shown: some 11% with an inconclusive outcome. Calls follow the shape of the dose curve; as a rule, active = well fitted inhibition curve with a large enough effect; inconclusive = small, poorly fitted or top-dose-only effect, or effect the other way; inactive = no such curve, though single readings can be large or run the other way. For the sample, actives were picked, then their nearest neighbours and some compounds at random.
Possible outcomes: True = active, False = inactive

compound=O=c1c(-c2ccccc2)coc2cc(O)ccc12 target_of_assay="Nuclear receptor ROR-gamma (Mus musculus)" category_label=False
compound="CCc1ccc(NC(=O)CS(=O)CC(=O)N2CCN(c3ccccc3F)CC2)cc1 (configuration not stated)" target_of_assay="Nuclear receptor ROR-gamma (Mus musculus)" category_label=False
compound=O=c1c(O)c(-c2ccc(O)cc2)oc2ccccc12 target_of_assay="Nuclear receptor ROR-gamma (Mus musculus)" category_label=True
compound=CCCC(O)(CCC)C(=O)NN(C(=O)CCl)c1cccc(C)c1 target_of_assay="Nuclear receptor ROR-gamma (Mus musculus)" category_label=True
compound=O=C1CCN(C(=S)NCCc2ccccc2)CC1 target_of_assay="Nuclear receptor ROR-gamma (Mus musculus)" category_label=False
compound="CC(=O)C1=C(O)C(=O)N(c2ccc(Br)cc2)C1c1ccc([N+](=O)[O-])cc1 (configuration not stated)" target_of_assay="Nuclear receptor ROR-gamma (Mus musculus)" category_label=False
compound="O=C(Nc1cccc(Cl)c1Cl)c1ccccc1NC(=O)C1CC=CCC1C(=O)O (configuration not stated)" target_of_assay="Nuclear receptor ROR-gamma (Mus musculus)" category_label=False
compound=O=C1/C(=C\c2cccnc2)CN(Cc2ccccc2)C/C1=C\c1cccnc1 target_of_assay="Nuclear receptor ROR-gamma (Mus musculus)" category_label=True
compound="CCCCNC(=O)C1CCC(=O)N1CCc1ccccc1 (configuration not stated)" target_of_assay="Nuclear receptor ROR-gamma (Mus musculus)" category_label=False
compound=Oc1ccc(Br)cc1C=Nc1ccc2[nH]ncc2c1 target_of_assay="Nuclear receptor ROR-gamma (Mus musculus)" category_label=True
compound="CCCC1CCC(=NNC(=S)NCCc2ccccc2)CC1 (configuration not stated)" target_of_assay="Nuclear receptor ROR-gamma (Mus musculus)" category_label=True
compound=Cc1ccc(N(NC(=O)C(C)(C)O)C(=O)c2ccccc2)cc1C target_of_assay="Nuclear receptor ROR-gamma (Mus musculus)" category_label=False
